pKi: −log10 of the molar value.
Collected pKi for UniProt P00760 across several studies; compounds listed below.
Sequence (P00760 whole entry): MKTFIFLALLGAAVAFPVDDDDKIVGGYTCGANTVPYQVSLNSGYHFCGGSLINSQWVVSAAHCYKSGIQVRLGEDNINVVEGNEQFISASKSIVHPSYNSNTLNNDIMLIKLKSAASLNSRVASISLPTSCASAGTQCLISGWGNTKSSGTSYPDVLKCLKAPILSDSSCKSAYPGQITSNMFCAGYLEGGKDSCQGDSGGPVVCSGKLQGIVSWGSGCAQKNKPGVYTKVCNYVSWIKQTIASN
RESULT_TYPE: pKi

INSERT INTO assay_data (compound, result_type, reading) VALUES
  ('Cc1ccc(NS(=O)(=O)Cc2ccc(F)cc2Cl)c(=O)n1CC(=O)NC1CCc2nc(N)sc2C1 (configuration not stated)', 'pKi', 2.72),
  ('N=C(N)NCCC[C@@H]1NC(=O)[C@@H]2CCCN2C(=O)[C@@H](Cc2ccccc2)NC(=O)CCCCCNC(=O)C1=O (single isomer, unassigned)', 'pKi', 6.15),
  ('N=C(N)N1CCCC(CNC(=O)C[C@H](NS(=O)(=O)c2ccc3ccccc3c2)C(=O)N2CCC(C(=O)O)CC2)C1 (some centres not stated)', 'pKi', 3.89),
  ('N=C(N)N1CCCC(CNC(=O)C[C@H](NS(=O)(=O)c2ccc3ccccc3c2)C(=O)N2CCCCCCC2)C1 (some centres not stated)', 'pKi', 4.55),
  ('COc1ccc2cc(S(=O)(=O)N[C@@H](Cc3ccc(C(=N)N)s3)C(=O)N(C)C3CCCC3)ccc2c1', 'pKi', 6.87),
  ('CNC(=O)[C@H](Cc1cccc(C(=N)N)c1)NS(=O)(=O)c1c(C)cc(C)cc1C', 'pKi', 3.00),
  ('N=C(N)c1ccc2[nH]c(Oc3ccc(-c4nc5cc(C(=N)N)ccc5[nH]4)cc3)nc2c1', 'pKi', 5.33),
  ('CCOC(=O)N1CCN(C(=O)C(Cc2cccc(C(=N)N)c2)NS(=O)(=O)c2ccc3ccccc3c2)CC1 (configuration not stated)', 'pKi', 7.66),
  ('N=C(N)c1ccc(O)c(/C=C/CNc2ccc(OC3CCN(C(N)=O)CC3)c(C(F)(F)F)c2)c1', 'pKi', 6.28),
  ('CC(=N)N1CCC(Oc2ccc3c(nc(C)n3Cc3ccc4ccc(C(=N)N)cc4c3)c2[N+](=O)[O-])CC1', 'pKi', 8.52);

1. O=C(O)CN[C@@H](C(=O)N1CCC[C@H]1C(=O)NCC#Cc1cnc[nH]1)C(c1ccccc1)c1ccccc1
2. N=C(N)c1cccc(Cn2ccc3cc(C(=N)N)ccc32)c1
3. CCCCc1nc2ccc(OC3CCN(C(C)=N)CC3)cc2n1Cc1ccc2ccc(C(=N)N)cc2c1
4. CNC(=O)[C@H]1CCCN(C(=O)[C@H](Cc2cccc(C(=N)N)c2)NS(=O)(=O)c2ccc3ccccc3c2)C1
5. COCc1onc(-c2cccc(C(=N)N)c2)c1C(=O)Nc1ccc(-c2ccccc2S(N)(=O)=O)cc1
Rank descending by pKi. Returns: the labels listed in the requested order.
3, 5, 4, 2, 1
